Target: T1, TNFR1 (Homo sapiens, UniProt P19438)
T1 chain: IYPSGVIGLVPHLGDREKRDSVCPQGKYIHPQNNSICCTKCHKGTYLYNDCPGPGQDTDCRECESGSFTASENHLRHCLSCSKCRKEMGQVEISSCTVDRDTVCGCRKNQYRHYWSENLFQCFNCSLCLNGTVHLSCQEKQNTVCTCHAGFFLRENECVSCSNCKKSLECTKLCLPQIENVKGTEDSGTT
Test: yeast display SC50
reported.metric: apparent Kd (screen) (nM)
Field: numeric (nM). Do not append units.

>  <binder>
Y13Q (designed binder) SMEEEVEKAAKEQEKKKKEAIEKHLEKLKAKDKEAAERFLKELEEAAKEYAKDEAKTMSEEEAKRRAKKYKEKVLLSELSEEEQKEIKEAEEKLVRTILKYVEEAAK

>  <apparent Kd (screen) / nM>
1.69

$$$$

Request: What value of apparent Kd (screen) has been recorded for this entry: E44V (designed binder) SMEEEVEKAAKEYEKKKKEAIEKHLEKLKAKDKEAAERFLKELVEAAKEYAKDEAKTMSEEEAKRRAKKYKEKVLLSELSEEEQKEIKEAEEKLVRTILKYVEEAAK
Response: 0.446
